System: SW-620 colon
assay.explanation: NCI-60 one-dose screen, 48 h (100 = growth as untreated, 0 = no growth, -100 = all killed)
recorded.conditions: 10 µM unless noted
This is part of a sample that, as a whole, favours compounds with a hit. Of some 83,000 tested, about 20% had one in any assay.
Answer label 0 if growth is under 40%, and label 1 if it is 40% or more.

**Query** Determine whether measured growth meets or exceeds 40% for O=C(O)CNC1=C(Cl)C(=O)c2ccccc2C1=O
**Result** label 1

**Query** Hi team, for Fc1cc2c(cc1Cl)N(c1ncnc3ccc(-c4cnc5[nH]ncc5c4)cc13)CC2 , is the recorded growth at or above 40%?
**Result** label 1

----------
System: DU-145 prostate
assay.explanation: NCI-60 one-dose screen, 48 h (100 = growth as untreated, 0 = no growth, -100 = all killed)
recorded.conditions: 10 µM unless noted
Method: Cells are grown in 96 well plates and exposed to the test compound for 48 hours. Compounds are tested at a single concentration, which is 10^-5 M for most compounds. The reported endpoint is percent growth (GI% or GIPRCNT), where numbers from 0 - 100% represent growth inhibition, and numbers from -100% - 0 represent cell death. For example, a value of 40 represents 60% growth inhibition. A value of 0 means no net growth occurred over the course of the experiment. […]
About 83,000 compounds went through this panel and 20% of them were active in at least one assay; those are over-represented in the sample as a whole.
In this section we review reported growth values for a set of compounds.
API: value field is a number in %; no unit string.

**Query** Could you tell me which growth is on file for CCN(CC)CCOc1ccc(C(=C(C)c2ccc(Cl)cc2)c2ccc(OCCN(CC)CC)cc2)cc1 ?
**Result** -36.4

**Query** Returns the measured growth for the input compound. Input: O=C(Nc1nc2ccc(F)cc2s1)c1cccnc1Nc1ccc(Cl)cc1
**Result** 44.3

----------
Test system: SN12C renal
assay.explanation: NCI-60 one-dose screen, 48 h
recorded.conditions: 10 µM unless noted
Compounds without any hit were thinned out: in the full panel of roughly 83,000, 20% have a hit. Calls of active or inactive are those of the source. Rule for the calls: active = growth percent below 10; inactive = the rest.
Select the correct class. Options are 1 = active, -1 = inactive and nothing else.

>  <molecule>
CC(C)=NNc1ccccn1

>  <qualitative.label>
-1

$$$$
>  <molecule>
O=C(Cn1c(=O)sc2ccccc21)NNS(=O)(=O)c1ccccc1[N+](=O)[O-]

>  <qualitative.label>
-1

$$$$
>  <molecule>
O=C(Nc1nc2ccc(F)cc2s1)c1cccnc1Nc1ccc(Cl)cc1

>  <qualitative.label>
-1

$$$$
>  <molecule>
CCN1CCN(c2cc(C(=O)Nc3nc(-c4cc(OC)c(OC)c(OC)c4)cs3)cc(C(F)(F)F)c2)CC1

>  <qualitative.label>
-1

$$$$
>  <molecule>
CC(C)OC(=O)c1ccc2[nH]c(O)c(C(=Nc3ccc(N(C)C(=O)CN4CCN(C)CC4)cc3)c3ccccc3)c2c1

>  <qualitative.label>
1

$$$$

**Query** # lookup: test call for CCCCCCCCCCCCCCCC(N)c1ccccc1 (stereo not given)
**Result** -1

**Query** Status in this test for O=C(c1ccc(-c2nc(CSc3nc4ccccc4s3)no2)cc1)N1CCSCC1 ?
**Result** -1

----------
System: 786-0 renal
assay.explanation: NCI-60 one-dose screen, 48 h
recorded.conditions: 10 µM unless noted
This is part of a sample that, as a whole, favours compounds with a hit. Of some 83,000 tested, about 20% had one in any assay. Activity calls are given as the source filed them. How the source made its calls: active means growth percent below 10; inactive means the rest.
Select the correct class. Options are active, inactive and nothing else.

These recorded examples may help you get a feel for the data.
>  <compound>
O=c1oc2ccc([N+](=O)[O-])cc2cc1Br

>  <qualitative.label>
inactive

$$$$
>  <compound>
CCn1c(=S)[nH]c2c(=O)n(C)c(=O)n(C)c21

>  <qualitative.label>
inactive

$$$$
>  <compound>
O=[N+]([O-])c1ccc(N/N=C(/C(=N/Nc2ccc([N+](=O)[O-])cc2)c2ccccc2)c2ccccc2)cc1

>  <qualitative.label>
inactive

$$$$
>  <compound>
N=C(N)c1ccc(-c2ccc(-c3ccc(Cl)cc3)s2)nc1

>  <qualitative.label>
inactive

$$$$
>  <compound>
CN1CCN(Cc2ccc(NC(=O)c3cncc(C#Cc4cnc(N)c5ccccc45)c3)cc2C(F)(F)F)CC1

>  <qualitative.label>
active

$$$$
>  <compound>
C1=C(N2CCCC2)CCC1

>  <qualitative.label>
inactive

$$$$

**Query** Hi, sorry to bother you, what did the test record for COc1ccc(C(=O)C2C(c3ccc(OC)cc3)CN(C)C23C(=O)Nc2ccccc23)cc1 (stereo not drawn) ?
**Result** inactive

**Query** Hi team, can someone confirm the assay call for C=C(C)[C@@H]1CC[C@]2(C(=O)N3CCN(C)CC3)CC[C@]3(C)[C@H](CC[C@@H]4[C@@]5(C)CC(=C/c6ccncc6)/C(=N/O)C(C)(C)[C@@H]5CC[C@]43C)[C@@H]12 ?
**Result** inactive

**Query** Identify the outcome logged in this assay for the compound shown: CCCCCOc1ccc(C(=O)/C(Br)=C/C(=O)O)cc1
**Result** inactive

**Query** Outcome? N#Cc1c(-c2ccc(Cl)cc2)nc(NN=Cc2cccc(O)c2)nc1N1CCOCC1
**Result** inactive

**Query** Hi team, can someone confirm the assay call for O=C(c1ccc(Cl)cc1)N1CCN(c2ccnc3cc(Cl)ccc23)CC1 ?
**Result** inactive

**Query** So what was the verdict on C=C(C)[C@@H]1CC[C@]2(C(=O)O)CC[C@]3(C)[C@H](CC[C@@H]4[C@@]5(C)C[C@@H](Cc6cn(CCO[C@@H]7O[C@H](COC(C)=O)[C@H](OC(C)=O)[C@H](OC(C)=O)[C@H]7OC(C)=O)nn6)[C@H](O)C(C)(C)[C@@H]5CC[C@]43C)[C@@H]12 in this test?
**Result** inactive

**Query** Record request — test call for Fc1ccc(Nc2nc3nonc3nc2Nc2ccc(I)cc2)cc1
**Result** active

**Query** What is the recorded call for this compound in the test? O=S(=O)(Nc1ccc(Cl)cc1)c1ccc(-c2cnc(C3CC3)o2)cc1
**Result** inactive

**Query** What did the test return for O=C(OCc1ccc2c(Cl)cc(Cl)c(O)c2n1)n1cncn1 ?
**Result** inactive

**Query** What did this assay record as the result for Cc1cc(Cl)ccc1Nc1nc(C(F)(F)F)ccc1C(=O)N/N=C/c1ccc([N+](=O)[O-])cc1 ?
**Result** active

**Query** Record lookup: outcome of this test for O=C1N(Cc2ccccc2Cl)c2ccccc2C12NN=C(c1cccc(Cl)c1)S2 (stereo not drawn) ?
**Result** active

**Query** Name the outcome recorded for COc1cc(CNS(=O)(=O)c2ccc(C)cc2)ccc1OCc1cn(-c2ccc(F)cc2)nn1 in the assay.
**Result** inactive
